Biological target: Solute carrier family 12 member 5 (Homo sapiens)
Assay: modulation of human KCC2 ion transport – cell-based, HEK293 KCC2, FluoZin-2 fluorescence, MLSMR, primary screen (AID 1456);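 also: slope of fluorescence scaled to starting intensity during 10 to 20 s after thallium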
Details: KCC2 cells, thallium flux FluoZin-2 fluorescence; at 10 µM
Hit rate of the full screen: of about 190,000 compounds, about 4,100 (2.2%) were called active.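 The calls were made as follows: active = thallium flux slope and its plate-corrected score both differing from the plate sample mean at a set confidence after two filtering rounds, in either direction; inactive = the rest.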 This excerpt belongs to a sample that is enriched for actives.
Outcomes you can answer with include only these: yes = active, no = inactive

{"columns": ["Compound", "Class"],
 "data": [
  ["CCOC(=O)C(=Cc1ccccc1OC)C(=O)OCC", "no"],
  ["O=C(NCCc1ccccc1)Oc1ccc(Cl)cc1", "no"],
  ["COc1ccc(-c2cn(-c3ccc(OC)cc3)c(=S)[nH]2)cc1", "yes"],
  ["NNC(=O)c1ccc(COCC(F)(F)C(F)F)cc1", "no"],
  ["CCCCSc1[nH]c(=O)c(C(=O)OCC)cc1C#N", "yes"]
]}

Q: Outcome logged for COc1ccc(CN2CCNC(=O)C2CC(=O)N(C)Cc2ccccn2)cc1OC (stereo unspecified) in this assay:
Ans: no

Q: Outcome logged for `O=C(CCCN1C(=O)/C(=C\c2ccccc2)SC1=S)Nc1ccccc1O` in this assay:
Ans: no

Q: Outcome logged for `COc1ccccc1-n1cnc2cc(NS(=O)(=O)c3ccccc3)ccc21` in this assay:
Ans: yes

Q: Outcome logged for `COc1ccc(-n2c(C)csc2=S)cc1` in this assay:
Ans: no

Q: Outcome logged for `CCOc1cccc(C(=O)Nc2nnc(-c3cccs3)s2)c1` in this assay:
Ans: no

Q: Outcome logged for `N=c1oc2ccccc2cc1C(=O)N/N=C/c1ccccc1` in this assay:
Ans: yes

Q: Outcome logged for `Cc1nc(=O)c(-c2ccccc2)c(C)n1-c1ccc(Br)cc1` in this assay:
Ans: no

Q: Outcome logged for `O=C1N(c2ccccc2)C(=Nc2ccccc2)SC12CC2` in this assay:
Ans: no

Q: Outcome logged for `Cc1ccc2cc(/C=N/NC(=O)[C@@H]3CCCN3)c(Cl)nc2c1` in this assay:
Ans: no
